- subject.of.test: Mannose-6-phosphate isomerase (Homo sapiens) (UniProt P34949)
- Sequence (P34949 whole entry, looked up): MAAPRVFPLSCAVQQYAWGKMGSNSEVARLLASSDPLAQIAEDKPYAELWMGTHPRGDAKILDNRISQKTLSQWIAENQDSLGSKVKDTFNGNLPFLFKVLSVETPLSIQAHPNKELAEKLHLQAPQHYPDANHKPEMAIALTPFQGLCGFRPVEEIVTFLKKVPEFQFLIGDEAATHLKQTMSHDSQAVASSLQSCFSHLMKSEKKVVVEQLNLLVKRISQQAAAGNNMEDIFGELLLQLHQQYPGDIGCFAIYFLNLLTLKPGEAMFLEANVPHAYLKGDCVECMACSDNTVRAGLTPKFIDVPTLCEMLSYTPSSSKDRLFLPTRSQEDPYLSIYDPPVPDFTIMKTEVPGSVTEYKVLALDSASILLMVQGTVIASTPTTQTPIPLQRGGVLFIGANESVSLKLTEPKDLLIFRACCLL
- test.summary: MPI inhibition at elevated mannose 6-phosphate – biochemical, fluorescence intensity, high mannose 6-phosphate, primary screen (AID 1220)
- protocol.conditions: recombinant PMI enzyme, coupled fluorescence intensity; at 20 µM
About 1,300 (0.68%) of roughly 190,000 compounds were called active. Cut-off read from the data, not from the text of the source: active = inhibition above about 50%; inactive = the rest. What follows is part of a selection rich in actives, with near analogues and random picks from the rest.
Entry note: the call must match one of active, inactive

Answered cases to consult:
| compound | subject.of.test | discrete.label |
| --- | --- | --- |
| Cc1onc(-c2ccccc2Cl)c1C(=O)N1CCOC12CCCCC2 | Mannose-6-phosphate isomerase (Homo sapiens) (UniProt P34949) | inactive |
| CC1CCCCC1NC(=O)CCCn1c(=S)[nH]c2ccccc2c1=O (configuration not stated) | Mannose-6-phosphate isomerase (Homo sapiens) (UniProt P34949) | inactive |
| COc1ccc2c(c1)CCc1cnc(N)nc1-2 | Mannose-6-phosphate isomerase (Homo sapiens) (UniProt P34949) | active |
| CCOc1ccc(/C=C2\SC(N3CCc4ccccc4C3)=NC2=O)cc1 | Mannose-6-phosphate isomerase (Homo sapiens) (UniProt P34949) | inactive |
| COc1cc(NC(=O)CCNC(=O)Cn2cnc3ccccc3c2=O)cc(OC)c1OC | Mannose-6-phosphate isomerase (Homo sapiens) (UniProt P34949) | inactive |

Task item: So what was the verdict on CC(=O)c1cccc(NC(=O)CCS(=O)(=O)c2cccc3nsnc23)c1 in this test?
Reply: inactive

Task item: Repeat for the following compound: Cc1ccc(C(=O)N/C(=C/c2ccccc2)C(=O)NCC2CCCO2)cc1 (configuration not stated)
Reply: inactive

Task item: Repeat for the following compound: COc1cccc(CNC(=O)CCC2CCCN(C(=O)CCC(F)(F)F)C2)c1 (configuration not stated)
Reply: inactive

Task item: Repeat for the following compound: COc1ccc(C(=O)Nc2nc3ccc(S(C)(=O)=O)cc3s2)cc1OC
Reply: inactive

Task item: Repeat for the following compound: O=C(NCc1ccc(Cl)cc1)c1ccc(-c2ccccc2C(F)(F)F)o1
Reply: inactive

Task item: Repeat for the following compound: COc1ccc(-c2cnc(N)nc2-c2ccc(OC)cc2O)cc1
Reply: inactive

Task item: Repeat for the following compound: Cc1c(-n2cc(C(=O)O)c(=O)c3cc(F)c(N4CCCC4)c(F)c32)c(=O)n(-c2ccccc2)n1C
Reply: inactive
